biological target: HLA-B*5301 (human); assay: 125I-probe peptide inhibition, purified HLA
recordedEndpoint: log10 of IC50 (log10 of the value in nM)
# log10 transformed; quantity=IC50; unit=nM

Some solved cases for reference:
Request: Could you share which log10 of IC50 value was measured for FPTPAAPI [p53.79.F118] ?
Result: 3.79

Request: Could you share which log10 of IC50 value was measured for FPRMPEAAPPI [p53.63.F1111] ?
Result: 3.74

Request: Could you share which log10 of IC50 value was measured for FPLPSQAI [p53.33.F1] ?
Result: 2.46

Request: Could you share which log10 of IC50 value was measured for FPAAPTPAA [p53.76.F1 (9-mer)] ?
Result: 2.79

Request: Could you share which log10 of IC50 value was measured for FPAPSWPL [p53.86.F1] ?
Result: 0.60

Request: Could you share which log10 of IC50 value was measured for FPAPSWPI [p53.86.F118] ?
Result: 0.52

Continuing:
Request: Could you share which log10 of IC50 value was measured for FPSWPLSSSI [p53.88.F1110] ?
Result: 0.93
